Target: c-Kit (Homo sapiens, UniProt P10721)
Sequence (P10721 26-976): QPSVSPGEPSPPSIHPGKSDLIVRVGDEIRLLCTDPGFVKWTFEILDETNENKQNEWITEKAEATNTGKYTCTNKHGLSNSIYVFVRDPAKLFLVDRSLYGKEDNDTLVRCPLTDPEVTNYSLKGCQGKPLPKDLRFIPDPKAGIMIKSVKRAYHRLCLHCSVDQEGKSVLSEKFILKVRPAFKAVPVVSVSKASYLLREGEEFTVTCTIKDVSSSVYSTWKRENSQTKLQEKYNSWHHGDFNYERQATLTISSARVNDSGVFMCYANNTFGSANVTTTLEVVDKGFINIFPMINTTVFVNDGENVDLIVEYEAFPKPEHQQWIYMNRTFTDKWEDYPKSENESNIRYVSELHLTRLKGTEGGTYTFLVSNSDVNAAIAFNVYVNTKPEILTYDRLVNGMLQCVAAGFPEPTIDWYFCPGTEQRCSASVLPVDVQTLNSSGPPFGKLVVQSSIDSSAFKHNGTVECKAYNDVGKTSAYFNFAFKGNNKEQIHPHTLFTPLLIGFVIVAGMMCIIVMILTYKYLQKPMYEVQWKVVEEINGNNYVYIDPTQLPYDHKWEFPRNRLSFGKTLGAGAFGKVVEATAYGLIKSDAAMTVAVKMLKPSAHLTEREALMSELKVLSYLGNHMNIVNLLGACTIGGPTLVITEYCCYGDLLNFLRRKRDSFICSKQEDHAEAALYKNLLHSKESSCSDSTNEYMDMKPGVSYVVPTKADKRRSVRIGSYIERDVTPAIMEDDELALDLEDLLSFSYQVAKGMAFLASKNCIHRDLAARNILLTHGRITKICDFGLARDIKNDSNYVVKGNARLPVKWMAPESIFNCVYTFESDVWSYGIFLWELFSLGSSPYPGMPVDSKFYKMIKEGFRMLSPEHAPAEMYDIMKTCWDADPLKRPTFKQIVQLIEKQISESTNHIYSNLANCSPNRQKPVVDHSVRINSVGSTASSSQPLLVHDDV
Assay: c-Kit biochemical assay (per US 2007/0032519)
readoutKind: IC50

// known answers, use as guide
molecule	IC50
Cn1cnc2ccc(-c3c[nH]c4ncc(-c5cccc(NS(C)(=O)=O)c5)nc34)cc21 [P-038]	10 to 200 µM
COc1cc(-c2cnc3[nH]cc(-c4ccc5ncsc5c4)c3n2)ccn1 [P-075]	10 to 200 µM

Lab note: measured IC50 of COc1ccc(-c2cnc3[nH]cc(-c4ccc5ncn(C)c5c4)c3c2)cn1 [P-040] was 1 to 10 µM

Quick note, IC50 for Cn1cnc2ccc(-c3c[nH]c4ncc(-c5cccc(N6CCOCC6)c5)cc34)cc21 [P-095] landed at 1 to 10 µM

Please fill in: IC50 reported for Cc1cc2[nH]cnc2cc1-c1c[nH]c2ncccc12 [P-025] = 10 to 200 µM

Item: CS(=O)(=O)Nc1cccc(-c2cnc3[nH]cc(-c4ccc5c(c4)OCCO5)c3n2)c1 [P-059] | IC50: 10 to 200 µM
